Molecular target: mTOR (Homo sapiens)
Construct: endogenous in cells; host or cells: Jurkat, clone E6-1 (ATCC TIB-152) cell lysate
Assay: mTOR kinobeads assay (competitive binding in Jurkat cell lysate, immunodetection)
Conditions: kinobeads assay, Table 6; read-out: Inhibition values (IC50) mTOR
pIC50: −log10 of the molar value.
Can you tell me pIC50 for the items I'm about to list?

Worked examples follow.
1) CCNC(=O)Nc1ccc(-c2nc3c(c(N4CCOC[C@@H]4C)n2)CN(CC(F)(F)F)C3)cc1    6.00 to 7.00
2) CCCNC(=O)Nc1ccc(-c2nc3c(c(N4CCOC[C@@H]4C)n2)CN(CC2CC2)C3)cc1    6.00 to 7.00
3) C[C@H]1COCCN1c1nc(-c2ccc(NC(=O)NC3CC3)cc2)nc2c1CN(C(=O)C(C)(C)C)C2    6.00 to 7.00
4) CCNC(=O)Nc1ccc(-c2nc3c(c(N4CCOC[C@@H]4C)n2)CN(C2CCN(C(=O)OC)CC2)C3)cc1F    6.00 to 7.00
5) CNC(=O)Nc1ccc(-c2nc3c(c(N4CCOC[C@@H]4C)n2)CNC3)cc1    > 7.00

Below are 3 compounds. Give each one its pIC50.
1. CCNC(=O)Nc1ccc(-c2nc3c(c(N4CCOC[C@@H]4C)n2)CN(C)C3)cc1F
2. CCOC(=O)N1Cc2nc(-c3ccc(NC(=O)NCCF)cc3)nc(N3CCOC[C@@H]3C)c2C1
3. CCOC(=O)N1Cc2nc(-c3ccc(NC(=O)Nc4cccnc4)cc3)nc(N3CCOC[C@@H]3C)c2C1

Completion:
1. 6.00 to 7.00
2. > 7.00
3. 6.00 to 7.00
